# protocol.description: Quantitative High-Throughput drug screen in 47 multiple myeloma cell lines against the NCATS MIPE library collection: INA6_PLB cell viability assay (AID 1918965; further: nearly all actives have a fitted effect of over 55% in size)
# assay.setup: INA6 myeloma viability, CellTiter-Glo ATP luminescence, 48 h; series mostly up to 45.8 µM
Records with an inconclusive call do not appear. Calls of active or inactive are those of the source. The call rests on the fitted dose curve; in most records, active means well fitted cell-killing curve with a large enough effect; inconclusive means small, poorly fitted or top-dose-only effect, or effect the other way; inactive means no such curve, though single readings can be large or run the other way.
Response enum: active, inactive

The following compounds have reported results that may help.
> print(dat)
                                   compound  category.label
1  Nc1cccc2c1C(=O)N(C1CCC(=O)NC1=O)C2=O (stereo not drawn)          active
2  COc1ccnc2[nH]cc(C(=O)C(=O)N3CCN(C(=O)c4ccccc4)C[C@@H]3C)c12        inactive
3  Nc1nc(=O)n([C@H]2C[C@H](O)[C@@H](CO)O2)cc1F          active
4  C[C@@H](Oc1ccc2[nH]nc(C=Cc3cnn(CCO)c3)c2c1)c1c(Cl)cncc1Cl          active
5  C[C@H]1[C@@H](OC(=O)CCC(=O)O)O[C@@H]2O[C@@]3(C)CC[C@@H]4[C@H](C)CC[C@@H]1[C@@]24OO3          active

Data request: Name the outcome recorded for `COc1cc(CCc2cc(NC(=O)c3ccc(N4C[C@@H](C)N[C@@H](C)C4)cc3)n[nH]2)cc(OC)c1` in the assay.
Data returned: active

Data request: Consider next the compound `CON=C(C(=O)N[C@@H]1C(=O)N2C(C(=O)O)=C(CSC(=O)c3ccco3)CS[C@H]12)c1csc(N)n1` in the same way.
Data returned: inactive

Data request: And then `C#C[C@]1(O)CC[C@@H]2[C@@H]3CCc4cc(O)ccc4[C@H]3CC[C@@]21C` , what is it?
Data returned: active

Data request: Consider next the compound CCCNC(=O)[C@H]1O[C@H]1C(=O)N[C@H](C(=O)N1CCC[C@@H]1C(=O)OC)C(C)CC (stereo partly drawn) in the same way.
Data returned: active

Data request: Same lookup for `O=C1NCCc2[nH]c(-c3ccncc3)cc21` , please.
Data returned: active

Data request: Queued: `COc1ccc(S(=O)(=O)Nc2cc(-c3c(O)ccc4ccccc34)c(O)c3ccccc23)cc1`
Data returned: active

Data request: // next record `Cc1ccc2nc(NCCN)c3ncc(C)n3c2c1`
Data returned: active

Data request: Continue with `O=C1NC(=O)[C@@H](c2cn3c4c(cccc24)CCC3)[C@H]1c1c[nH]c2ccccc12`
Data returned: active

###

# protocol.description: Quantitative High-Throughput drug screen in 47 multiple myeloma cell lines against the NCATS MIPE library collection: MM1R_ATCC cell viability assay (AID 1918981); further: nearly all actives have a fitted effect of over 35% in size
# assay.setup: MM1R multiple myeloma cells, CellTiter-Glo viability, 48 h; series mostly up to 45.8 µM
Records with an inconclusive call do not appear. Calls of active or inactive are those of the source. Calls follow the shape of the dose curve; as a rule, active = well fitted cell-killing curve with a large enough effect; inconclusive = small, poorly fitted or top-dose-only effect, or effect the other way; inactive = no such curve, though single readings can be large or run the other way.
Write down one outcome, taken from YES = active, NO = inactive

Previously resolved entries follow.
> print(dat)
                                   molecule  category.label
1      O=C1c2cccc(O)c2C(=O)c2c(O)cc(CO)cc21              NO
2  CCCCCCCN(CC)CCCC(O)c1ccc(NS(C)(=O)=O)cc1 (centres undefined)              NO
3  C=C(C)[C@@H]1CC[C@]2(C)CC[C@]3(C)[C@H](CC[C@@H]4[C@@]5(C)CC[C@H](O)C(C)(C)[C@H]5CC[C@]43C)[C@@H]12              NO

Proceed to the following item.
Data request: Outcome logged for `CC(C)[C@H](CO)Nc1nc(Nc2cccc(Cl)c2)c2ncn(C(C)C)c2n1` in this assay:
Data returned: YES

###

# protocol.description: Quantitative High-Throughput drug screen in 47 multiple myeloma cell lines against the NCATS MIPE library collection: Delta47_JCRB cell viability assay (AID 1918925; further: nearly all actives have a fitted effect of over 45% in size)
# assay.setup: Delta47 myeloma viability, CellTiter-Glo ATP, 48 h; series mostly up to 45.8 µM
Inconclusive results are not listed. Activity calls are given as the source filed them. Calls come from the whole dose curve; as a rule, active = well fitted cell-killing curve with a large enough effect; inconclusive = small, poorly fitted or top-dose-only effect, or effect the other way; inactive = no such curve, though single readings can be large or run the other way.
The categories you may choose from are t for active, f for inactive

> print(dat)
                                   compound  category.label
1  COc1ccc(S(=O)(=O)Nc2cc(-c3c(O)ccc4ccccc34)c(O)c3ccccc23)cc1               t
2  C[C@@H](Cc1cc2c(c(C(N)=O)c1)N(CCCO)CC2)NCCOc1ccccc1OCC(F)(F)F               t
3                         COC(=O)C=CC(=O)OC               t
4  NC(=NCCCCCCN=C(N)N=C(N)Nc1ccc(Cl)cc1)N=C(N)Nc1ccc(Cl)cc1               t

Data request: Kindly provide the recorded test outcome for the following compound: `CCN(C(=O)c1c(O)c2c(Cl)cccc2n(C)c1=O)c1ccccc1`
Data returned: f

###

# protocol.description: Primary qHTS for inhibitors of nuclear receptor binding SET domain protein 2 (NSD2) in an RCH-ACV wild type WT cells (2C) (AID 1645877); further: nearly all actives have a fitted effect of over 70% in size
# assay.setup: RCH-ACV (leukaemia line) NSD2 WT (2C) viability, CellTiter-Glo, 72 h; series mostly up to 44.9 µM
# Description: Assay Provider: Jonathan D. Licht, MD University of Florida College of Medicine, Gainesville, FL Mutations in epigenetic regulators are common in relapsed pediatric acute lymphoblastic leukemia (ALL). Here, we uncovered the mechanism underlying the relapse of ALL driven by an activating mutation of the NSD2 histone methyltransferase (p.E1099K). […] Correction of this mutation restored glucocorticoid sensitivity. […]
Records with an inconclusive call do not appear. Activity calls are given as the source filed them. Calls follow the shape of the dose curve; as a rule, active = well fitted inhibition curve with a large enough effect; inconclusive = small, poorly fitted or top-dose-only effect; inactive = no such curve, though single readings can be large or run the other way.
Pick one and only one: 1.0 for active, 0.0 for inactive

Data request: Hey, what did the test say about Cc1ccccc1C(=O)Nc1ccc(C(=O)N2CCCC(O)c3cc(Cl)ccc32)c(C)c1 (stereo not drawn) ?
Data returned: 1.0

Data request: Further, for `CCC[C@H]1C[C@H](C(=O)N[C@@H]([C@@H]2O[C@@H](SC)[C@@H](O)[C@@H](O)[C@@H]2O)[C@H](C)Cl)N(C)C1` ?
Data returned: 0.0

Data request: Next up: `CC(C)NC[C@@H](C(=O)N1CCN(c2ncnc3c2[C@H](C)C[C@H]3O)CC1)c1ccc(Cl)cc1`
Data returned: 1.0

###

# protocol.description: qHTS of pediatric cancer cell lines to identify multiple opportunities for drug repurposing: Primary screen for RD cells (AID 1347104); further: nearly all actives have a fitted effect of over 55% in size
# assay.setup: RD rhabdomyosarcoma viability, CellTiter-Glo luminescence, 48 h; series mostly up to 46 µM
Inconclusive results are not listed. Calls of active or inactive are those of the source. Calls follow the shape of the dose curve; as a rule, active = well fitted cell-killing curve with a large enough effect; inconclusive = small, poorly fitted or top-dose-only effect; inactive = flat fitted curve, though single readings scatter.
Thanks in advance; please answer with one of these: active, inactive

Worked examples, 4 compounds total:
> print(dat)
                                   compound  category.label
1  CCN(C(=O)c1c(O)c2c(Cl)cccc2n(C)c1=O)c1ccccc1        inactive
2  OCCNC1CCCc2c1[nH]c1ccc(-c3ccccc3)cc21 (stereo not given)          active
3  CON=C(C(=O)N[C@@H]1C(=O)N2C(C(=O)O)=C(CSC(=O)c3ccco3)CS[C@H]12)c1csc(N)n1        inactive
4  OC[C@H]1OC(O)C[C@@H](O)[C@H]1O (stereo not given in full)        inactive

Field: next compound
Data request: Would you mind telling me which call this test gave `O=C1c2c(O)cccc2[C@@H]([C@@H]2O[C@H](CO)[C@@H](O)[C@H](O)[C@H]2O)c2cc(CO)cc(O)c21` ?
Data returned: inactive

###

# protocol.description: qHTS of pediatric cancer cell lines to identify multiple opportunities for drug repurposing: Primary screen for NB-EBc1 cells (AID 1347095)
# assay.setup: NB-EBc1 neuroblastoma viability, CellTiter-Glo luminescence, 48 h; series mostly up to 46 µM
Results filed as inconclusive are left out. Activity calls are given as the source filed them. The call rests on the fitted dose curve; in most records, active means well fitted cell-killing curve with a large enough effect; inconclusive means small, poorly fitted or top-dose-only effect; inactive means no such curve, though single readings can be large or run the other way.
Hello, when you answer, please use one of the following outcomes: active, inactive

compound	category.label
CCC(C=C[C@@H]1OC(=O)C=C[C@H]1C)=C[C@H](C)CC=CC(C)=C[C@@H](C)C(=O)[C@@H](C)[C@H](O)[C@@H](C)CC(C)=CC(=O)O	active

Now examine the next entry.
Data request: Each compound tested received a call. Report the one for `CS[C@H]1SC[C@@H]2C(=O)N(C)[C@H](C(C)C)C(=O)OC[C@H](NC(=O)c3cnc4ccccc4n3)C(=O)N[C@H](C)C(=O)N(C)[C@@H]1C(=O)N(C)[C@H](C(C)C)C(=O)OC[C@H](NC(=O)c1cnc3ccccc3n1)C(=O)N[C@H](C)C(=O)N2C` .
Data returned: inactive

###

# protocol.description: qHTS of pediatric cancer cell lines to identify multiple opportunities for drug repurposing: Confirmatory screen for Rh30 cells (AID 1347126); further: nearly all actives have a fitted effect of over 55% in size
# assay.setup: Rh30 rhabdomyosarcoma cell viability; series mostly up to 45.9 µM
Records with an inconclusive call do not appear. Activity calls are given as the source filed them. Calls come from the whole dose curve; as a rule, active = well fitted cell-killing curve with a large enough effect; inconclusive = small, poorly fitted or top-dose-only effect, or effect the other way; inactive = no such curve, though single readings can be large or run the other way.
The reply should be one of these categories: active, inactive

Worked cases, answers included:
entry.smiles	category.label
Oc1ccc(-c2ccc(-c3cc(Nc4cccc(CNC5CC5)c4)n[nH]3)cc2)c(O)c1	active
COc1ccc(C[C@@H](C)[C@@H](C)Cc2ccc(OC)c(OC)c2)cc1OC	inactive
COc1cc2c(cc1OC)[C@@H]1C(=O)c3ccc4c(c3O[C@@H]1CO2)C=CC(C)(C)O4	active
N#CNC(=NCCCCCCOc1ccc(Cl)cc1)Nc1ccncc1	active
CNC(=O)Nc1ccc(-c2nc(N3CC4CCC(C3)O4)c3cnn(C4CCC5(CC4)OCCO5)c3n2)cc1	active
COc1cc(OC)c(C=CS(=O)(=O)Cc2ccc(OC)c(NCC(=O)O)c2)c(OC)c1	inactive

Data request: What did the test return for `CC(C)(O)Cn1c(NC(=O)c2ccc(-c3cn[nH]c3)s2)nc2cc(CN3CCOCC3)ccc21` ?
Data returned: active

Data request: Item: `COc1cc([C@@H]2c3cc4c(cc3[C@@H](O[C@@H]3O[C@@H]5CO[C@@H](c6cccs6)O[C@@H]5[C@H](O)[C@@H]3O)[C@H]3COC(=O)[C@H]23)OCO4)cc(OC)c1O`
Data returned: active
